Molecular target: UniProtKB P20272
Sequence (P20272 whole entry): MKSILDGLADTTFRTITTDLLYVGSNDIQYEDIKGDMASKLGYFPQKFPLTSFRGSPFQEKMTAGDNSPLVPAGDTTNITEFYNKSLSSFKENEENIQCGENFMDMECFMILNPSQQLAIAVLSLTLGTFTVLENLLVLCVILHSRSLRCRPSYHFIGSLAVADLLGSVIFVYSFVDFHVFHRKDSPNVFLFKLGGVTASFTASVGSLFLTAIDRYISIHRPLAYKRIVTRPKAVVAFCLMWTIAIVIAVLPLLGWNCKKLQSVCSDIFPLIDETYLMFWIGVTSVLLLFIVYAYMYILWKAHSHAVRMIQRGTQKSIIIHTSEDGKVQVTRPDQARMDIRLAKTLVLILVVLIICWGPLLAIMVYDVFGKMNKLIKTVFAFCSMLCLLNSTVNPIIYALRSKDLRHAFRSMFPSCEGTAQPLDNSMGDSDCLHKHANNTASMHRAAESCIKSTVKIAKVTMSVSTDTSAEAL
Experiment: CB1 receptor binding, displacement of [3H]CP-55,940 from rat brain P2 membranes (Example 2)
Parameters: from tissue; host or cells: whole rat brain membranes
Conditions: CB1 (Ki, nM), determined in the presence of PMSF, rat brain membranes, [3H]CP 55,940, PMSF 100 μM
Description: For CB1 receptor binding, [^3H]CP-55,940 (Kd=[…]) was incubated with P2 membranes from whole rat brains as described in Compton et al., J. Pharm. Exp. Ther. 265:218-226 (1993). Displacement curves were generated by incubating drugs with 1 nM of [^3H]CP-55,940. […] In all cases, Ki values were calculated applying the Cheng-Prusoff equation to the IC50 values (obtained by GraphPad) for the displacement of the bound radioligand by increasing concentrations of the test compounds. […]
Recorded measurements of Ki, one per entry
# output: bare number, implied unit nM

MOLECULE | UOM | NUMBER
COc1cc(CNC(=O)CCC/C=C\C/C=C\C/C=C\C/C=C\C(C)(C)CCCCBr)ccc1O [Compound O-1861] | nM | 24.3

Query string: Name the reported Ki value associated with the molecule C[C@H](CO)NC(=O)CCC/C=C\C/C=C\C/C=C\C/C=C\C(C)(C)CCCCBr [Compound O-1860]
Result string: 1

Query string: Name the reported Ki value associated with the molecule CCCCCCC(C)(C)/C=C\C/C=C\C/C=C\C/C=C\CCCC(=O)NCc1ccc(O)c(OC)c1 [Compound O-1839]
Result string: 201

Query string: Name the reported Ki value associated with the molecule C[C@H](CO)NC(=O)CCC/C=C\C/C=C\C/C=C\C/C=C\C(C)(C)CCCCC#N [Compound O-1812]
Result string: 4.6

Query string: Name the reported Ki value associated with the molecule COc1cc(CNC(=O)CCC/C=C\C/C=C\C/C=C\C/C=C\C(C)(C)CCCCO)ccc1O [Compound O-1856]
Result string: 1070

Query string: Name the reported Ki value associated with the molecule COc1cc(CNC(=O)CCC/C=C\C/C=C\C/C=C\C/C=C\C(C)(C)CCCCC#N)ccc1O [Compound O-1895]
Result string: 44.8

====

Recorded measurements of Rectal temp. ED50, one per entry
system: mice; assay: Mouse tetrad of behavioral tests, i.v. (Example 3); format: in vivo; settings: i.v., mean (range)

CPD_SMILES | TARGET_OF_ASSAY | TEST_READOUT | RESULT
CCCCC/C=C\C/C=C\C/C=C\C/C=C\CCCNC(=S)NCc1ccc(O)c(Cl)c1 | mice | Rectal temp. ED50 | 0.33 (0.02-5.06) milligrams per kilogram
CCCCC/C=C\C/C=C\C/C=C\C/C=C\CCCNC(=O)NCc1ccc(O)c(OC)c1 | mice | Rectal temp. ED50 | 0.08 (0.03-0.20) milligrams per kilogram
CCCCC/C=C\C/C=C\C/C=C\C/C=C\CCCNC(=S)NCc1ccc(O)c(OC)c1 | mice | Rectal temp. ED50 | 0.03 (0.02-0.07) milligrams per kilogram

// below: Rectal temp. ED50 requested for another compound
Query string: Name the reported Rectal temp. ED50 value associated with the compound CCCCC/C=C\C/C=C\C/C=C\C/C=C\CCCC(=O)NCc1ccc(OC(=O)CCCN2CCOCC2)c(OC)c1
Result string: 0.11 (0.07-0.17) milligrams per kilogram
